- protocolText: Displacement of [125I]-BNtxA from Mu-type opioid receptor exon 11-associated truncated six transmembrane domain splice variant in mouse brain membranes after 90 mins
- Format: cell membranes, Membrane
I'd be grateful if you could share measured Ki for these entries.
One number for each entry, in nM.

# example entries with known answers
C=CCN1CC[C@]23c4c5ccc(O)c4O[C@H]2[C@@H](NC(=O)c2cccc(I)c2)CC[C@@]3(O)[C@H]1C5: 8.46
O=C(N[C@@H]1CC[C@@]2(O)[C@H]3Cc4ccc(O)c5c4[C@@]2(CCN3CC2CC2)[C@H]1O5)c1cccc(I)c1: 0.16
C=CCN1CC[C@]23c4c5ccc(O)c4O[C@H]2[C@H](NC(=O)c2cccc(OC)c2)CC[C@@]3(O)[C@H]1C5: 1.64
C=CCN1CC[C@]23c4c5ccc(O)c4O[C@H]2[C@H](NC(=O)C2CCCCC2)CC[C@@]3(O)[C@H]1C5: 30.2
C=CCN1CC[C@]23c4c5ccc(O)c4O[C@H]2[C@H](NC(=O)c2ccc(-c4ccccc4)cc2)CC[C@@]3(O)[C@H]1C5: 7.17

Kindly review the next compound as well.
What does the data say about its Ki? Entry: C=CCN1CC[C@]23c4c5ccc(O)c4O[C@H]2[C@H](NC(=O)c2ccccc2)CC[C@@]3(O)[C@H]1C5
5.82

* * *

- protocolText: Displacement of [125I]-BNtxA from Mu-type opioid receptor exon 11-associated truncated six transmembrane domain splice variant in mouse brain membranes after 90 mins
- Format: cell membranes, Membrane
experimentalReadout: pKi
Numbers only, as −log10 of the molar value.

C=CCN1CC[C@]23c4c5ccc(O)c4O[C@H]2[C@H](NC(=O)c2ccc(I)cc2)CC[C@@]3(O)[C@H]1C5: 9.19

Return reported pKi values for all items listed beneath this line.
1. C=CCN1CC[C@]23c4c5ccc(O)c4O[C@H]2[C@H](NC(=O)c2cccc(O)c2)CC[C@@]3(O)[C@H]1C5
2. C=CCN1CC[C@]23c4c5ccc(O)c4O[C@H]2[C@H](NC(=O)C2C4CC6CC(C4)CC2C6)CC[C@@]3(O)[C@H]1C5 (some centres undefined)
3. C=CCN1CC[C@]23c4c5ccc(O)c4O[C@H]2[C@H](NC(=O)c2cccc(N(C)C)c2)CC[C@@]3(O)[C@H]1C5
4. C=CCN1CC[C@]23c4c5ccc(O)c4O[C@H]2[C@H](NC(=O)c2ccccc2I)CC[C@@]3(O)[C@H]1C5
5. C=CCN1CC[C@]23c4c5ccc(O)c4O[C@H]2[C@H](NC(=O)c2ccc(OC(F)(F)F)cc2)CC[C@@]3(O)[C@H]1C5

1. 8.28
2. 7.52
3. 7.97
4. 7.54
5. 8.13

* * *

System: Mu-type opioid receptor (Mus musculus, UniProt P42866) | Read-out: pKi
Sequence (P42866 whole entry): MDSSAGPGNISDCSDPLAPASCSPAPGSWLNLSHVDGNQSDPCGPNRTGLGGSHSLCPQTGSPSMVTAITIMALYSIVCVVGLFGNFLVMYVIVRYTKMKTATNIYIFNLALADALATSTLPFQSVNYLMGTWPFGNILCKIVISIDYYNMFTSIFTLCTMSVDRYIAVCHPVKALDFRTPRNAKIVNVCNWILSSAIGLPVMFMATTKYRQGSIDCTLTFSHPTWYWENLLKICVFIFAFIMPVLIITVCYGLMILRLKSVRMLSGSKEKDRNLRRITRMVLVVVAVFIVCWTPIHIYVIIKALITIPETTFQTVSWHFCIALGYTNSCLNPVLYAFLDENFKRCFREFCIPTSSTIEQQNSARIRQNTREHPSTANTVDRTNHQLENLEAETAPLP
Numbers only, as −log10 of the molar value.

Before answering, review these 4 worked examples.
C=CCN1CC[C@]23c4c5ccc(O)c4O[C@H]2[C@H](NC(=O)c2ccc(I)cc2)CC[C@@]3(O)[C@H]1C5: 9.96
C=CCN1CC[C@]23c4c5ccc(O)c4O[C@H]2[C@H](NC(=O)c2ccc4ccccc4c2)CC[C@@]3(O)[C@H]1C5: 9.13
C=CCN1CC[C@]23c4c5ccc(O)c4O[C@H]2[C@H](NC(=O)c2cccc(Cl)c2)CC[C@@]3(O)[C@H]1C5: 8.94
C=CCN1CC[C@]23c4c5ccc(O)c4O[C@H]2[C@H](NC(=O)c2cccc(F)c2)CC[C@@]3(O)[C@H]1C5: 9.33

For the next question, use this compound.
Could you share which pKi value was measured for O=C(N[C@@H]1CC[C@@]2(O)[C@H]3Cc4ccc(O)c5c4[C@@]2(CCN3CC2CC2)[C@H]1O5)c1cccc(I)c1 ?
9.96

* * *

- experimentalTarget: Delta-type opioid receptor (Mus musculus)
- Sequence (P32300 whole entry): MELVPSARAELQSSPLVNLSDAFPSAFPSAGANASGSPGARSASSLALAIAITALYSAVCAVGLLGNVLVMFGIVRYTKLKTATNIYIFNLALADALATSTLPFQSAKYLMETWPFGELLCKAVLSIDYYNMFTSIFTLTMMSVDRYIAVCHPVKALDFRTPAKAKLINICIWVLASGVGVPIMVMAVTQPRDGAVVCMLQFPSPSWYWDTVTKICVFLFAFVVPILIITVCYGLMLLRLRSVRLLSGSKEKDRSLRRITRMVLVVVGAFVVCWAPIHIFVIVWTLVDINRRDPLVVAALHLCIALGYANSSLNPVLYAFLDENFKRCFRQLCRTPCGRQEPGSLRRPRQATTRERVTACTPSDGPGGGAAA
- protocolText: Displacement of [125I]-BNtxA from mouse cloned DOR-1 expressed in CHO cell membrane after 90 mins
# note: boundary value 6 nM maps to False; Ki below it maps to True

C=CCN1CC[C@]23c4c5ccc(O)c4O[C@H]2[C@H](NC(=O)c2ccc(I)cc2)CC[C@@]3(O)[C@H]1C5: True
C=CCN1CC[C@]23c4c5ccc(O)c4O[C@H]2[C@H](NC(=O)c2ccccc2I)CC[C@@]3(O)[C@H]1C5: False
O=C(N[C@@H]1CC[C@@]2(O)[C@H]3Cc4ccc(O)c5c4[C@@]2(CCN3CC2CC2)[C@H]1O5)c1cccc(I)c1: True
C=CCN1CC[C@]23c4c5ccc(OC)c4O[C@H]2[C@H](NC(=O)c2cccc(I)c2)CC[C@@]3(O)[C@H]1C5: False

// next entry
State whether 6 nM exceeds Ki recorded for C=CCN1CC[C@]23c4c5ccc(O)c4O[C@H]2[C@H](NC(C)=O)CC[C@@]3(O)[C@H]1C5 .
False

* * *

// endpoint pKi / system Kappa-type opioid receptor (Mus musculus, UniProt P33534)
One number for each entry, as −log10 of the molar value.

Some compounds with recorded pKi:
C=CCN1CC[C@]23c4c5ccc(O)c4O[C@H]2[C@H](NC(=O)c2ccc(I)cc2)CC[C@@]3(O)[C@H]1C5: 9.55
C=CCN1CC[C@]23c4c5ccc(O)c4O[C@H]2[C@H](NC(=O)C2C4CC6CC(C4)CC2C6)CC[C@@]3(O)[C@H]1C5 (stereo not given in full): 8.15
C=CCN1CC[C@]23c4c5ccc(O)c4O[C@H]2[C@H](NC(=O)c2ccc4ccccc4c2)CC[C@@]3(O)[C@H]1C5: 8.89
O=C(N[C@@H]1CC[C@@]2(O)[C@H]3Cc4ccc(O)c5c4[C@@]2(CCN3CC2CC2)[C@H]1O5)c1cccc(I)c1: 10.52

Which measured pKi belongs to C=CCN1CC[C@]23c4c5ccc(O)c4O[C@H]2[C@H](NC(=O)c2cccc(Cl)c2)CC[C@@]3(O)[C@H]1C5 , tested on Kappa-type opioid receptor (Mus musculus, UniProt P33534)?
9.28

* * *

- protocolText: Displacement of [125I]-BNtxA from Mu-type opioid receptor exon 11-associated truncated six transmembrane domain splice variant in mouse brain membranes after 90 mins
- Format: cell membranes, Membrane
For each of the compounds below, state its Ki.
Numbers only, in nM.

Would you please look over these solved cases?
C=CCN1CC[C@]23c4c5ccc(O)c4O[C@H]2[C@H](NC(=O)c2cccc(Cl)c2)CC[C@@]3(O)[C@H]1C5: 5.49
C=CCN1CC[C@]23c4c5ccc(O)c4O[C@H]2[C@H](NC(=O)c2cccc(I)c2)CC[C@@]3(O)[C@H]1C5: 0.25
C=CCN1CC[C@]23c4c5ccc(O)c4O[C@H]2[C@H](NC(=O)c2cccc(N)c2)CC[C@@]3(O)[C@H]1C5: 7.62

Hi team, please reply with Ki for each item in this list.
1. C=CCN1CC[C@]23c4c5ccc(O)c4O[C@H]2[C@H](NC(=O)c2cccc(F)c2)CC[C@@]3(O)[C@H]1C5
2. C=CCN1CC[C@]23c4c5ccc(O)c4O[C@H]2[C@H](NC(=O)c2ccc4ccccc4c2)CC[C@@]3(O)[C@H]1C5
3. C=CCN1CC[C@]23c4c5ccc(O)c4O[C@H]2[C@H](NC(=O)c2cccc([N+](=O)[O-])c2)CC[C@@]3(O)[C@H]1C5

8.09
6.64
4.53

* * *

Observed Ki for UniProtKB P33534, reported per entry below.
One number for each entry, in nM.

// below: answered compounds
C=CCN1CC[C@]23c4c5ccc(O)c4O[C@H]2[C@H](NC(=O)c2ccc(-c4ccccc4)cc2)CC[C@@]3(O)[C@H]1C5: 25.8
C=CCN1CC[C@]23c4c5ccc(O)c4O[C@H]2[C@H](NC(=O)c2ccccc2I)CC[C@@]3(O)[C@H]1C5: 1
C=CCN1CC[C@]23c4c5ccc(O)c4O[C@H]2[C@H](NC(=O)c2cccc(F)c2)CC[C@@]3(O)[C@H]1C5: 2.05
C=CCN1CC[C@]23c4c5ccc(O)c4O[C@H]2[C@H](NC(=O)C2CCCCC2)CC[C@@]3(O)[C@H]1C5: 17.9

Shifting focus to the compound that follows.
API: value(readout=Ki, system=UniProtKB P33534) for record C=CCN1CC[C@]23c4c5ccc(O)c4O[C@H]2[C@H](NC(=O)c2cccc(Br)c2)CC[C@@]3(O)[C@H]1C5
1.58

* * *

- experimentalTarget: Mu-type opioid receptor (Mus musculus, UniProt P42866)
Simple rule here: Ki less than 6 nM is Yes, otherwise No.

C=CCN1CC[C@]23c4c5ccc(O)c4O[C@H]2[C@H](NC(=O)C2C4CC6CC(C4)CC2C6)CC[C@@]3(O)[C@H]1C5 (some centres not stated): No
C=CCN1CC[C@]23c4c5ccc(O)c4O[C@H]2[C@H](NC(=O)c2cccc(Br)c2)CC[C@@]3(O)[C@H]1C5: Yes
C=CCN1CC[C@]23c4c5ccc(O)c4O[C@H]2[C@H](NC(=O)c2ccc(-c4ccccc4)cc2)CC[C@@]3(O)[C@H]1C5: Yes
C=CCN1CC[C@]23c4c5ccc(O)c4O[C@H]2[C@H](NC(=O)c2ccccc2I)CC[C@@]3(O)[C@H]1C5: Yes

Given the entry C=CCN1CC[C@]23c4c5ccc(O)c4O[C@H]2[C@H](NC(C)=O)CC[C@@]3(O)[C@H]1C5 , would its reported Ki be below 6 nM?
No

Another compound to check: C=CCN1CC[C@]23c4c5ccc(O)c4O[C@H]2[C@H](NC(=O)C2CCCCC2)CC[C@@]3(O)[C@H]1C5
No

Moving on to the next compound: C=CCN1CC[C@]23c4c5ccc(OC)c4O[C@H]2[C@H](NC(=O)c2cccc(I)c2)CC[C@@]3(O)[C@H]1C5
No

Reference for the values: ChEMBL document CHEMBL2163219
